Can you tell me cytochrome c release ratio for the items I'm about to list?
# EXPERIMENT_SUMMARY: inhibitors of mitochondrial cytochrome c release, biochemical, purified mitochondria (AID 1603);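 further: mouse liver mitochondria challenged with calcium chloride; signal normalized to the plate average as 100%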
# CONDITION_SUMMARY: stronger effect = lower value

(Q) Look at this compound and give its reported cytochrome c release ratio. CN1CC(=O)N=C1N
(A) 0.51

(Q) Continue with CC[C@H]1OC(=O)[C@H](C)[C@@H](O[C@H]2C[C@@](C)(OC)[C@@H](O)[C@H](C)O2)[C@H](C)[C@@H](O[C@@H]2O[C@H](C)C[C@H](N(C)C)[C@H]2O)[C@](C)(O)C[C@@H](C)/C(=N\OCOCCOC)[C@H](C)[C@@H](O)[C@]1(C)O
(A) 0.93

(Q) Continue with COc1cc(S(C)=O)ccc1-c1nc2ncccc2[nH]1 (centres undefined)
(A) 0.94

(Q) Continue with O=C(O)c1cccnc1C(=O)O
(A) 1.17
